# SYSTEM_UNDER_TEST: glucose-6-phosphate dehydrogenase-6-phosphogluconolactonase (Plasmodium falciparum 3D7)
# ASSAY_METHOD_TEXT: concentration-dependent PfGluPho enzyme inhibition – biochemical, fluorescence intensity, dose response (AID 504765)
# CONDITION_SUMMARY: Recombinant PfG6PD enzyme, fluorescence intensity (NADPH)
Active and inactive are the calls of the source. How the calls were made is not given here.
Your reply should match one of these outcome classes. active, inactive

MOLECULE: Cc1c(/C=C/C(=O)c2ccc(Cl)s2)cnn1C
SYSTEM_UNDER_TEST: glucose-6-phosphate dehydrogenase-6-phosphogluconolactonase (Plasmodium falciparum 3D7)
LABEL: active
--
MOLECULE: Oc1cc(CNCc2ccccc2)c(O)cc1CNCc1ccccc1
SYSTEM_UNDER_TEST: glucose-6-phosphate dehydrogenase-6-phosphogluconolactonase (Plasmodium falciparum 3D7)
LABEL: active
--
MOLECULE: Nn1c(SCC(=O)Nc2cccnc2Cl)nnc1-c1ccccc1
SYSTEM_UNDER_TEST: glucose-6-phosphate dehydrogenase-6-phosphogluconolactonase (Plasmodium falciparum 3D7)
LABEL: inactive
--
MOLECULE: O=c1[nH]c(NCCO)c(N=Cc2ccccc2)c(=O)[nH]1
SYSTEM_UNDER_TEST: glucose-6-phosphate dehydrogenase-6-phosphogluconolactonase (Plasmodium falciparum 3D7)
LABEL: active
--
MOLECULE: COCCn1nnnc1C(c1cc2cc(OC)c(OC)cc2[nH]c1=O)N1CCN(c2ccc(O)cc2)CC1 (stereo not drawn)
SYSTEM_UNDER_TEST: glucose-6-phosphate dehydrogenase-6-phosphogluconolactonase (Plasmodium falciparum 3D7)
LABEL: inactive
--
MOLECULE: Cc1cc(C)c(S(=O)(=O)Nc2cc(SCC(=O)O)c(O)c3ccccc23)cc1C
SYSTEM_UNDER_TEST: glucose-6-phosphate dehydrogenase-6-phosphogluconolactonase (Plasmodium falciparum 3D7)
LABEL: active
--
MOLECULE: Cc1[nH]c2ccccc2c1/C=N/NC(=O)c1cccc(S(=O)(=O)Nc2ccccc2Cl)c1
SYSTEM_UNDER_TEST: glucose-6-phosphate dehydrogenase-6-phosphogluconolactonase (Plasmodium falciparum 3D7)
LABEL: active
--
MOLECULE: CCN(CC)C(=O)c1c(C)[nH]c(=S)c(C#N)c1-c1ccco1
SYSTEM_UNDER_TEST: glucose-6-phosphate dehydrogenase-6-phosphogluconolactonase (Plasmodium falciparum 3D7)
LABEL: inactive
--
MOLECULE: CCN1CCCC1CNC(=O)c1ccc2c(c1)NC(=O)/C(=C\c1ccccc1Cl)S2 (stereo not drawn)
SYSTEM_UNDER_TEST: glucose-6-phosphate dehydrogenase-6-phosphogluconolactonase (Plasmodium falciparum 3D7)
LABEL: active
--
MOLECULE: COc1ccc(CCn2c(NN=C3CCCCC3)nc3c2c(=O)[nH]c(=O)n3C)cc1
SYSTEM_UNDER_TEST: glucose-6-phosphate dehydrogenase-6-phosphogluconolactonase (Plasmodium falciparum 3D7)
LABEL: active

Lookup: Returns: the outcome recorded for CC1=C(C)CS(=O)N(S(=O)(=O)c2ccc(Cl)cc2)C1 (stereo not drawn) in this assay.
Found: inactive

Lookup: Returns: the outcome recorded for COc1ccc(N=C2C(=S)N(c3ccc(OC)cc3)C(=NS(=O)(=O)c3ccccc3)N2c2ccccc2)cc1 in this assay.
Found: active

---

# SYSTEM_UNDER_TEST: glucose-6-phosphate dehydrogenase-6-phosphogluconolactonase (Plasmodium falciparum 3D7)
# ASSAY_METHOD_TEXT: concentration-dependent PfGluPho enzyme inhibition – biochemical, fluorescence intensity, dose response (AID 504765)
# CONDITION_SUMMARY: Recombinant PfG6PD enzyme, fluorescence intensity (NADPH)
pIC50 listing for selected compounds.
Please keep in mind that pIC50 is minus log10 of the molar concentration; only the number is needed.

COMPOUND: NS(=O)(=O)c1ccc(-c2ccc(C=C3C(=O)NC(=O)NC3=O)o2)cc1
QUANTITATIVE_READOUT: 5.50

COMPOUND: Cc1cnc(C=NNC(N)=S)c2cccc(N)c12
QUANTITATIVE_READOUT: 5.76

COMPOUND: O=c1c2cc(F)ccc2sn1-c1ccc(F)cc1
QUANTITATIVE_READOUT: 5.65

Lookup: Returns the measured pIC50 for the input compound. Input: O=C(CNC(=O)c1cccs1)OCC(=O)c1ccc([N+](=O)[O-])cc1
Found: 4.86

Lookup: Returns the measured pIC50 for the input compound. Input: Cc1nn(-c2ccccc2)c(Cl)c1/C=N/Nc1nc2ccccc2n1C
Found: 4.88

Lookup: Returns the measured pIC50 for the input compound. Input: O=c1c2ccccc2[se]n1-c1ccccc1
Found: 5.02

Lookup: Returns the measured pIC50 for the input compound. Input: O=C(O)c1cc(N2C(=O)C=CC2=O)cc(N2C(=O)C=CC2=O)c1
Found: 5.36

Lookup: Returns the measured pIC50 for the input compound. Input: CCn1c2ccccc2c2cc(/C=N/n3cn[nH]c3=S)ccc21
Found: 5.01

Lookup: Returns the measured pIC50 for the input compound. Input: COc1ccc(N2CSC3=C(C#N)C(c4ccc(OC)c(OC)c4)CC(=O)N3C2)c(OC)c1 (stereo unspecified)
Found: 5.28

Lookup: Returns the measured pIC50 for the input compound. Input: O=c1c2ccccc2sn1-c1cccc(Cl)c1
Found: 5.38

Lookup: Returns the measured pIC50 for the input compound. Input: O=C1Nc2cc(C(=O)NCCCN3CCCC3)ccc2S/C1=C/c1cccc(Cl)c1
Found: 4.75
